# EXPERIMENT DESCRIPTION: Relative hydrophobic moment of compound
# Type: physicochemical
Known Activity of a selection of substances
REPORTED ENDPOINT: Activity

substance=H-YTVSATYWKKIWKPGIKKWIK-OH reported_endpoint=Activity value_observed=0.452
substance=H-HSDANAWWKKIWKPGIKKWIK-OH reported_endpoint=Activity value_observed=0.455
substance=H-CFASAPRWKKIWKPGIKKWIK-OH reported_endpoint=Activity value_observed=0.562
substance=H-WTSNDTAWKKIWKPGIKKWIK-OH reported_endpoint=Activity value_observed=0.532
substance=H-WKKIWKPGIKKWIK-OH reported_endpoint=Activity value_observed=0.727
substance=H-EMPGYNSWKKIWKPGIKKWIK-OH reported_endpoint=Activity value_observed=0.475
substance=H-FASSHPSWKKIWKPGIKKWIK-OH reported_endpoint=Activity value_observed=0.55
substance=H-RLTTMVHWKKIWKPGIKKWIK-OH reported_endpoint=Activity value_observed=0.439
